Target: Transthyretin (Homo sapiens)
Assay: Inhibition of wild type TTR aggregation expressed in Escherichia coli assessed as fibril formation at 7.2 uM after 72 hrs relative to untreated-control
assay.metric: inhibition (%)

[
  {
    "test.smiles": "O=C(Nc1cc(Br)c(O)c(Br)c1)c1ccccc1F",
    "inhibition [%]": 2
  },
  {
    "test.smiles": "COc1ccccc1C(=O)Nc1cc(Br)c(O)c(Br)c1",
    "inhibition [%]": 2
  },
  {
    "test.smiles": "O=C(Nc1cc(Br)c(O)c(Br)c1)c1ccccc1Cl",
    "inhibition [%]": 2
  }
]
